- Test system: Zymoseptoria tritici (SEPTTR-184)
- assay: Efficacy of target gene fragments (MgCytB dsRNA tiles) on wheat plants, SEPTTR-184
- Format: in vivo
- conditionSummary: 3DC (curative); sum over 200, 50, 12.5, 3.125 ppm
- Method: The 200 ppm rate for each treatment was prepared by adding the calculated volume of the corresponding dsRNA solution in TE buffer. Lower rates were prepared as 4-fold dilutions (50 ppm, 12.5 ppm, and 3.12 ppm). A non-target dsRNA control (YFP), a TE/phosphate buffer control, disease pressure control, and clean plant control were included. These plants were inoculated with an aqueous spore suspension of Zymoseptoria tritici either prior to or after fungicidal treatments. […]
assayMetric: Sum of Disease Control SEPTTR-184 3DC (%)
Write down the numeric answer in % and omit the unit.

Answered cases to consult:
molecule	assayMetric	reportedResult
MgCytB-T5: 172 bp dsRNA of Zymoseptoria CytB region T5, location 173-344 (SEQ ID NO:8) (nucleic acid, listed as Zymoseptoria tritici, complementary strand of dsRNA) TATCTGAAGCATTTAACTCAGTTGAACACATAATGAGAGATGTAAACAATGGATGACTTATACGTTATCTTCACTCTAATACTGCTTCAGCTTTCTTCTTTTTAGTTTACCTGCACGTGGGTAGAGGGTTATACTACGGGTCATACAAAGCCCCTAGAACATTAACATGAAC	Sum of Disease Control SEPTTR-184 3DC	265
MgCytB-T4: 219 bp dsRNA of Zymoseptoria CytB region T4, location 1-219 (SEQ ID NO:7) (nucleic acid, listed as Zymoseptoria tritici, complementary strand of dsRNA) ATGAGGATTTGGAAGAGTCACCCTTTATTTAGTCTGGTTAATGGTTATCTTATCGATTCACCACAACCAAGTAATCTAAGCTATCTATGAAATTTCGGTTCATTACTGGGATTTTGTCTTGTAATACAAATCGTTACTGGTGTTACACTTGCTATGCATTATAACCCTAGCGTATCTGAAGCATTTAACTCAGTTGAACACATAATGAGAGATGTAAAC	Sum of Disease Control SEPTTR-184 3DC	316

# Sum of Disease Control SEPTTR-184 3DC (molecule: MgCytB-T3: 116 bp dsRNA of Zymoseptoria CytB region 3, location 279-394 (SEQ ID NO:6) (nucleic acid, listed as Zymoseptoria tritici, long dsRNA, chemistry not given here, further chemistry not given here) TTACCTGCACGTGGGTAGAGGGTTATACTACGGGTCATACAAAGCCCCTAGAACATTAACATGAACAATCGGTACTATAATACTAGTTCTGATGATGGCAACCGCATTCTTAGGGT ) is 334

The measurements presented in this section are drawn from patent US10392620B2.
